Target: Macrophage mannose receptor 1 (Homo sapiens, UniProt P22897)
Sequence (P22897 whole entry): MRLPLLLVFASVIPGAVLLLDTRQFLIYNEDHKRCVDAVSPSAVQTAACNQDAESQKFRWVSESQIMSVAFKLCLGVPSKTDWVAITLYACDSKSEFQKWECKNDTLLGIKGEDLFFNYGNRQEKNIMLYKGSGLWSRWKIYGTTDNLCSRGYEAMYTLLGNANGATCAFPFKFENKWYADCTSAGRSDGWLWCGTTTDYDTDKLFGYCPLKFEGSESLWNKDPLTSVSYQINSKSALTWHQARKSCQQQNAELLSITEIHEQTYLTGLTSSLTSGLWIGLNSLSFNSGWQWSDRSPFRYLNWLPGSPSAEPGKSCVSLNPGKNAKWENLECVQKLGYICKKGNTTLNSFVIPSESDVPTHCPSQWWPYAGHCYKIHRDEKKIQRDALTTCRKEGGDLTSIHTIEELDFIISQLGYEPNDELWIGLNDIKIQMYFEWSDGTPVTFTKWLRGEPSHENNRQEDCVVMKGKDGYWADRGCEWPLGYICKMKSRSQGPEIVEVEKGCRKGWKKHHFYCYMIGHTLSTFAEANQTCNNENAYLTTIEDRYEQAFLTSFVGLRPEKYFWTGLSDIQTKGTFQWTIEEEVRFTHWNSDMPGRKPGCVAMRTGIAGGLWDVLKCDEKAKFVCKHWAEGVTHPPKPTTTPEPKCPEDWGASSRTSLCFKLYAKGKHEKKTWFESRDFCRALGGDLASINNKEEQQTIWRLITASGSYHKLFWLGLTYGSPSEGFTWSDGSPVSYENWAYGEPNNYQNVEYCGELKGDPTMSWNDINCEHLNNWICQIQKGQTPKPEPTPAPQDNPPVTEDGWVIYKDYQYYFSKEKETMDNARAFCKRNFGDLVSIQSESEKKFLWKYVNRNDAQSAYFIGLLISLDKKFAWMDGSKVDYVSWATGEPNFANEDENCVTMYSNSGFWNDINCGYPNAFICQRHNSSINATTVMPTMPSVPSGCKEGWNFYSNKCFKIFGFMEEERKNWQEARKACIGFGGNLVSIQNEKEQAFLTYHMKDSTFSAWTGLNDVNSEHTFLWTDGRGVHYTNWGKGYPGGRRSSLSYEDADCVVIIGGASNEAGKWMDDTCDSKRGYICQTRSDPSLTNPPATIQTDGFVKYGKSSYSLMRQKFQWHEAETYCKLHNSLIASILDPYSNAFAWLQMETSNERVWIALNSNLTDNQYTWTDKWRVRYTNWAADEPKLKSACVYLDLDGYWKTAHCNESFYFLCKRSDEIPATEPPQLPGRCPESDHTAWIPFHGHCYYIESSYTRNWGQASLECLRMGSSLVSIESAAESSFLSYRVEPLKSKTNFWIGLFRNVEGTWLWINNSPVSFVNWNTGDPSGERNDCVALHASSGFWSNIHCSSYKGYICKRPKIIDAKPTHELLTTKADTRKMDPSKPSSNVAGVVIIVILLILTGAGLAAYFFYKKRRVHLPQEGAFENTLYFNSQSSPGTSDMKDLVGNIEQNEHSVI
pIC50: −log10 of the molar value.
parameter-measured: pIC50

* O=C(O)c1ccc(-c2ccc(O[C@H]3O[C@H](CO)[C@@H](O)[C@H](O)[C@@H]3O)c(Cl)c2)cc1 | 3.00
* O=C(O)c1ccc2c(ccn2-c2ccc(O[C@H]3O[C@H](CO)[C@@H](O)[C@H](O)[C@@H]3O)c(Cl)c2)c1 | 3.00
